# MEASUREMENT PROTOCOL: Cmax in Sprague-Dawley rat at 1 mg/kg, iv measured upto 8 hrs by LC-MS/MS analysis
# Assay type: ADME, organism-based
# Parameters: dose 1 mg/kg, time < 8 hrs, route iv
# STATED CONDITIONS: in vivo
MEASURED QUANTITY: Cmax (nM)
Dear colleague, please return just the value in nM, with no unit written.

Request: Recorded Cmax for `C[C@H](c1c(Cl)ccc(C2CC2)c1Cl)n1cnc2cnc(-c3ccccc3[C@@H](C)C(=O)O)cc21` , please?
Result: 1420

---

# MEASUREMENT PROTOCOL: Clearance in Sprague-Dawley rat at 1 mg/kg, iv measured upto 8 hrs by LC-MS/MS analysis
# Assay type: ADME, organism-based
# STATED CONDITIONS: in vivo
MEASURED QUANTITY: clearance (mL/min/kg)
Dear colleague, please return just the value in mL/min/kg, with no unit written.

Request: Recorded clearance for `C[C@H](c1c(Cl)ccc(C2CC2)c1Cl)n1cnc2cnc(-c3ccccc3[C@@H](C)C(=O)O)cc21` , please?
Result: 41.9

---

# TGT: UniProt P43220
# MEASUREMENT PROTOCOL: Positive allosteric modulator activity at human GLP-1R expressed in HEK293 cells assessed as potentiation of EC20 GLP-1(9-36) induced cAMP accumulation in presence of IBMX relative to GLP-1(9-36)
# Format: functional, cell-based
pEC50: −log10 of the molar value.
Answer Criterion not met if pEC50 is under 6, and Criterion met if it is 6 or more.

Below are worked cases with known answers.
COMPOUND	QUALITATIVE LABEL
C[C@H](c1c(Cl)ccc(C2CC2)c1Cl)n1cnc2cnc(Br)cc21	Criterion not met
COc1ccc(Cl)c([C@@H](C)n2cnc3ccc(-c4ccccc4[C@H]4CCCCN4)cc32)c1Cl	Criterion met
C[C@H](c1c(Cl)ccc(C2CC2)c1Cl)n1cnc2cnc(-c3ccccc3[C@@H](C)C(=O)O)cc21	Criterion met

Now for another entry.
Request: Decide: is the reported value of pEC50 for CC(C(=O)O)c1ccccc1-c1cc2c(cn1)ncn2[C@H](C)c1c(Cl)ccc(C2CC2)c1Cl (stereo not given in full) equal to or greater than 6?
Result: Criterion met

---

# MEASUREMENT PROTOCOL: Cmax in CD1 mouse at 1 mg/kg, iv measured upto 8 hrs by LC-MS/MS analysis
# Type: ADME, organism-based
# Design: time < 8 hrs, dose 1 mg/kg, route iv
# STATED CONDITIONS: in vivo
MEASURED QUANTITY: Cmax
Remember to put the unit after the number in your answer.

Request: Recorded Cmax for `C[C@H](c1c(Cl)ccc(C2CC2)c1Cl)n1cnc2cnc(-c3ccccc3[C@@H](C)C(=O)O)cc21` , please?
Result: 1430 nM

---

# TGT: Glucagon-like peptide 1 receptor (Homo sapiens)
# MEASUREMENT PROTOCOL: Partial agonist activity at human GLP-1R expressed in HEK293 cells assessed as potentiation of GLP-1(9-36) induced cAMP accumulation in presence of IBMX
# Format: functional, cell-based
MEASURED QUANTITY: EC50 (nM)
Dear colleague, please return just the value in nM, with no unit written.

Request: Recorded EC50 for `C[C@H](c1c(Cl)ccc(C2CC2)c1Cl)n1cnc2cnc(-c3ccccc3[C@@H](C)C(=O)O)cc21` , please?
Result: 1800

---

# MEASUREMENT PROTOCOL: AUC in Sprague-Dawley rat at 1 mg/kg, iv measured upto 8 hrs by LC-MS/MS analysis
# Assay type: ADME, organism-based
# Set-up: time < 8 hrs, dose 1 mg/kg, route iv
# STATED CONDITIONS: in vivo
MEASURED QUANTITY: AUC at 8 h (µM·h)
Dear colleague, please return just the value in µM·h, with no unit written.

Request: Recorded AUC at 8 h for `C[C@H](c1c(Cl)ccc(C2CC2)c1Cl)n1cnc2cnc(-c3ccccc3[C@@H](C)C(=O)O)cc21` , please?
Result: 0.859

---

# MEASUREMENT PROTOCOL: Clearance in Beagle dog at 1 mg/kg, iv measured upto 8 hrs by LC-MS/MS analysis
# Assay type: ADME, organism-based, Canis lupus familiaris
# STATED CONDITIONS: in vivo
MEASURED QUANTITY: clearance (L/h/kg)
Dear colleague, please return just the value in L/h/kg, with no unit written.

Request: Recorded clearance for `C[C@H](c1c(Cl)ccc(C2CC2)c1Cl)n1cnc2cnc(-c3ccccc3[C@@H](C)C(=O)O)cc21` , please?
Result: 1.11

---

# MEASUREMENT PROTOCOL: Oral bioavailability in Sprague-Dawley rat at 3 mg/kg measured upto 16 hrs by LC-MS/MS analysis
# Format: ADME, organism-based
# STATED CONDITIONS: in vivo
MEASURED QUANTITY: bioavailability (%)
Dear colleague, please return just the value in %, with no unit written.

Request: Recorded bioavailability for `C[C@H](c1c(Cl)ccc(C2CC2)c1Cl)n1cnc2cnc(-c3ccccc3[C@@H](C)C(=O)O)cc21` , please?
Result: 45

---

# MEASUREMENT PROTOCOL: AUC in CD1 mouse at 1 mg/kg, iv measured upto 8 hrs by LC-MS/MS analysis
# Assay type: ADME, organism-based
# Design: time < 8 hrs, dose 1 mg/kg, route iv
# STATED CONDITIONS: in vivo
MEASURED QUANTITY: AUC at 8 h (µM·h)
Dear colleague, please return just the value in µM·h, with no unit written.

Request: Recorded AUC at 8 h for `C[C@H](c1c(Cl)ccc(C2CC2)c1Cl)n1cnc2cnc(-c3ccccc3[C@@H](C)C(=O)O)cc21` , please?
Result: 3.64

---

# MEASUREMENT PROTOCOL: Oral bioavailability in CD1 mouse at 3 mg/kg measured upto 16 hrs by LC-MS/MS analysis
# Type: ADME, organism-based
# STATED CONDITIONS: in vivo
MEASURED QUANTITY: bioavailability (%)
Dear colleague, please return just the value in %, with no unit written.

Request: Recorded bioavailability for `C[C@H](c1c(Cl)ccc(C2CC2)c1Cl)n1cnc2cnc(-c3ccccc3[C@@H](C)C(=O)O)cc21` , please?
Result: 67

---

# MEASUREMENT PROTOCOL: Cmax in Sprague-Dawley rat at 3 mg/kg, po measured upto 16 hrs by LC-MS/MS analysis
# Assay type: ADME, organism-based
# Design: time < 16 hrs, dose 3 mg/kg, route po
# STATED CONDITIONS: in vivo
MEASURED QUANTITY: Cmax (nM)
Dear colleague, please return just the value in nM, with no unit written.

Request: Recorded Cmax for `C[C@H](c1c(Cl)ccc(C2CC2)c1Cl)n1cnc2cnc(-c3ccccc3[C@@H](C)C(=O)O)cc21` , please?
Result: 183

---

# MEASUREMENT PROTOCOL: Half life in CD1 mouse at 1 mg/kg, iv measured upto 8 hrs by LC-MS/MS analysis
# Format: ADME, organism-based
# STATED CONDITIONS: in vivo
MEASURED QUANTITY: half-life (h)
Dear colleague, please return just the value in h, with no unit written.

Request: Recorded half-life for `C[C@H](c1c(Cl)ccc(C2CC2)c1Cl)n1cnc2cnc(-c3ccccc3[C@@H](C)C(=O)O)cc21` , please?
Result: 2.1

---

# TGT: Glucagon-like peptide 1 receptor (Homo sapiens, UniProt P43220)
# Sequence (P43220 whole entry): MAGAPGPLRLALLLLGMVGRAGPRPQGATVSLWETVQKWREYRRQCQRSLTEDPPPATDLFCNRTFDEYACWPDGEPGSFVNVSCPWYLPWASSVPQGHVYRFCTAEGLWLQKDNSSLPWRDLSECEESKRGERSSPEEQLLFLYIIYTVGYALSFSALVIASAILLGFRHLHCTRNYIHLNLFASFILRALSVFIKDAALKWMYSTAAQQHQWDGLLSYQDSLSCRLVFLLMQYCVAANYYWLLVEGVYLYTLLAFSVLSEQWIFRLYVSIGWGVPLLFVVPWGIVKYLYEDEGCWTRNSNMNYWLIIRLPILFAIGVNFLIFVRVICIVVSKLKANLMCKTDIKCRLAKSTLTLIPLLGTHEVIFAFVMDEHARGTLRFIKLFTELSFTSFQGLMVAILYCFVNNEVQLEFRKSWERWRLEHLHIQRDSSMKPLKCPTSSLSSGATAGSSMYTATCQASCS
# MEASUREMENT PROTOCOL: Positive allosteric modulator activity at human GLP-1R expressed in HEK293 cells assessed as fold increase in potentiation of GLP-1(9-36) induced cAMP accumulation in presence of IBMX relative to GLP-1(9-36)
# Format: functional, cell-based
Criterion: fold change (FC) strictly less than 800. Met: fulfilled. Not met: not fulfilled.

COMPOUND	TGT	QUALITATIVE LABEL
COc1ccc(Cl)c([C@@H](C)n2cnc3ccc(-c4ccccc4[C@H]4CCCCN4)cc32)c1Cl	Glucagon-like peptide 1 receptor (Homo sapiens, UniProt P43220)	not fulfilled
C[C@H](c1c(Cl)ccc(C2CC2)c1Cl)n1cnc2cnc(Br)cc21	Glucagon-like peptide 1 receptor (Homo sapiens, UniProt P43220)	fulfilled
CC(C(=O)O)c1ccccc1-c1cc2c(cn1)ncn2[C@H](C)c1c(Cl)ccc(C2CC2)c1Cl (stereo not given in full)	Glucagon-like peptide 1 receptor (Homo sapiens, UniProt P43220)	not fulfilled

Request: Given the entry `COc1ccc(Cl)c([C@@H](C)n2cnc3ccc(Br)cc32)c1Cl` , would its reported fold change (FC) be below 800?
Result: fulfilled

Request: Given the entry `C[C@H](c1c(Cl)ccc(C2CC2)c1Cl)n1cnc2cnc(-c3ccccc3[C@@H](C)C(=O)O)cc21` , would its reported fold change (FC) be below 800?
Result: not fulfilled

---

# TGT: Glucagon-like peptide 1 receptor (Homo sapiens, UniProt P43220)
# MEASUREMENT PROTOCOL: Positive allosteric modulator activity at human GLP-1R expressed in HEK293 cells assessed as potentiation of GLP-1(9-36) induced cAMP accumulation by measuring maximal efficacy in presence of IBMX relative to GLP-1(9-36)
# Type: functional, cell-based
# STATED CONDITIONS: filed as positive allosteric modulator
Reported Emax values for the following molecules.
Dear colleague, please return just the value in %, with no unit written.

The cases that follow already have their Emax on record.
MOLECULE	UNIT SYMBOL	Emax
COc1ccc(Cl)c([C@@H](C)n2cnc3ccc(Br)cc32)c1Cl	%	115
C[C@H](c1c(Cl)ccc(C2CC2)c1Cl)n1cnc2cnc(Br)cc21	%	110
COc1ccc(Cl)c([C@@H](C)n2cnc3ccc(-c4ccccc4[C@H]4CCCCN4)cc32)c1Cl	%	88
C[C@H](c1c(Cl)ccc(C2CC2)c1Cl)n1cnc2cnc(-c3ccccc3[C@@H](C)C(=O)O)cc21	%	102

# input for lookup
Request: Recorded Emax for CC(C(=O)O)c1ccccc1-c1cc2c(cn1)ncn2[C@H](C)c1c(Cl)ccc(C2CC2)c1Cl (stereo not given in full) , please?
Result: 103
